test: qHTS of pediatric cancer cell lines to identify multiple opportunities for drug repurposing: Primary screen for SK-N-MC cells (AID 1347093); conditions: SK-N-MC viability, CellTiter-Glo luminescence, 48 h; series mostly up to 46 µM
Results filed as inconclusive are left out. Calls of active or inactive are those of the source. Calls come from the whole dose curve; as a rule, active = well fitted cell-killing curve with a large enough effect; inconclusive = small, poorly fitted or top-dose-only effect; inactive = no such curve, though single readings can be large or run the other way.
Form entry, call: pick from True (active), False (inactive)

mol: O=c1[nH]c2ccccc2n1CCCN1CCC(n2c(=O)[nH]c3cc(Cl)ccc32)CC1
category: False

mol: Cc1ccc(S(=O)(=O)N[C@@H](CCCCN)C(=O)CCl)cc1
category: True

mol: c1ccc(C2CC2)c(OCC2=NCCN2)c1
category: False

mol: Nc1ccncc1
category: False

mol: Cc1ccc(-c2nc3ccc(C)cn3c2CC(=O)N(C)C)cc1
category: False

mol: c1ccc2c(c1)Nc1ccccc1S2
category: False

Would you mind telling me which call this test gave O=C(O)c1ccc2[nH]cc(CCCCN3CC=C(c4ccccc4)CC3)c2c1 ?
False

###

tested on: Dd2; assay: qHTS profiling for inhibitors of Plasmodium falciparum proliferation (AID 504749); note: nearly all actives have a fitted effect of over 60% in size; conditions: P. falciparum in erythrocytes, SYBR Green DNA, 72 h; series mostly up to 28.7 µM
Results filed as inconclusive are left out. The source made the active and inactive calls. The call rests on the fitted dose curve; in most records, active means well fitted inhibition curve with a large enough effect; inconclusive means small, poorly fitted or top-dose-only effect; inactive means flat fitted curve, though single readings scatter.
Result category, one only: active, inactive

These recorded examples may help you get a feel for the data.
compound: CCCC1CCCCN1 (stereo not drawn)
category: inactive

compound: O=c1[nH]c2ccccc2n1C1CCN(CCCC(c2ccc(F)cc2)c2ccc(F)cc2)CC1
category: active

compound: Cc1ncc(CNC(=O)N(CCCl)N=O)c(N)n1
category: inactive

Recorded test call requested for OCCOc1ccccc1
inactive

Kindly provide the recorded test outcome for the following compound: CC[N+]1(C)CCCC(OC(=O)C(O)(c2ccccc2)c2ccccc2)C1 (stereo not drawn)
inactive

What was the test verdict on FC(F)(F)c1cccc(C2=CCN(CCc3ccc4ccccc4c3)CC2)c1 ?
inactive

Recorded call for CC[N+](CC)(CC)CC ?
inactive

Please share the test call associated with CCOC(=O)C1(c2ccccc2)CCN(CCC(C#N)(c2ccccc2)c2ccccc2)CC1 .
active

Hey, what did the test say about NCC(O)c1ccc(O)cc1 (stereo not drawn) ?
inactive

Which outcome was entered for the compound O=C(NC(O)C(Cl)(Cl)Cl)NC(O)C(Cl)(Cl)Cl (stereo not drawn) in this test?
inactive

In this assay, the call recorded for CC(=O)[C@H]1CC[C@H]2[C@@H]3CC[C@H]4C[C@](C)(O)CC[C@]4(C)[C@H]3CC[C@]12C was what?
inactive

Please state the recorded outcome for this compound: CC(=O)Nc1cc([As](=O)(O)O)ccc1O
inactive

Could you please tell me the result logged for Nc1ccncc1 in this assay?
inactive

###

assay: Primary qHTS for inhibitors of MERS-S pseudo-typed particle cell entry (AID 1479149); conditions: MERS-S pseudotyped particle entry, luciferase; series mostly up to 57.1 µM; note: nearly all actives have a fitted effect of over 60% in size
Inconclusive results are not listed. The source made the active and inactive calls. Calls follow the shape of the full dose curve.
Your answer must be one of the following: 1 (yes) (active), 0 (no) (inactive)

compound: Cc1ccccc1N1C(=O)c2cc(S(N)(=O)=O)c(Cl)cc2NC1C (stereo unspecified)
category: 0 (no)
--
compound: Cc1cccc(Nc2ccccc2C(=O)O)c1C
category: 0 (no)
--
compound: CC(C)C[C@H](NC(=O)[C@H](Cc1ccccc1)NC(=O)c1cnccn1)B(O)O
category: 0 (no)
--
compound: CCN(CC)C(=S)SSC(=S)N(CC)CC
category: 0 (no)
--
compound: COc1cc2nc(N3CCN(C(=O)C4CCCO4)CC3)nc(N)c2cc1OC (stereo unspecified)
category: 0 (no)
--
compound: Cc1ccc(C)c(OCCCC(C)(C)C(=O)O)c1
category: 0 (no)
--
compound: CN(C)CCCN1c2ccccc2CCc2ccc(Cl)cc21
category: 1 (yes)
--
compound: CC(CCc1ccccc1)NC(C)C(O)c1ccc(O)cc1 (stereo unspecified)
category: 0 (no)

For this compound, state the assay outcome: CCCCCOC(=O)Nc1nc(=O)n([C@@H]2O[C@H](C)[C@@H](O)[C@H]2O)cc1F
0 (no)

How did this test come out for CC(C)C1CCC(C(=O)N[C@H](Cc2ccccc2)C(=O)O)CC1 (stereo partly specified) ?
0 (no)

Write down the call the test reported for this compound. Item: CC(C)NCC(O)COc1cccc2[nH]ccc12 (stereo unspecified)
0 (no)
